The origin of these recorded values is patent US20240239752A1.

# system under test: recombinant human KLK5 (Homo sapiens, UniProt Q9Y337)
# Sequence (Q9Y337 23-293): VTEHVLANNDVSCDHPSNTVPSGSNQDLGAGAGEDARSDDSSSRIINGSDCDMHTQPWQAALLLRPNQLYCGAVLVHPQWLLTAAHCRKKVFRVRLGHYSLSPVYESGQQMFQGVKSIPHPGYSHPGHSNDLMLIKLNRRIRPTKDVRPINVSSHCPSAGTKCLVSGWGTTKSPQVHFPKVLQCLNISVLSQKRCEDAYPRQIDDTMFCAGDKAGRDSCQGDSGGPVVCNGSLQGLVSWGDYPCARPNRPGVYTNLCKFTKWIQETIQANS
# assay text: Kallikrein (KLK) 5 enzymatic assay (Boc-VPR-AMC fluorogenic substrate)
# run parameters: recombinant human KLK5 0.1 μg/well, Boc-VPR-AMC 100 μM, pH 7.5, room temperature, 1% DMSO; tested a minimum of three times
# Procedure: […] The reaction rate for enzyme alone was compared to the reaction rate of enzyme in the presence of compound and the percent inhibition was calculated as shown below: […]
Overview of recorded IC50 for various compounds

Example cases with answers are listed next.
compound: Nc1nccc2c(-c3ccc4c(c3)[C@H](Oc3ccccc3CC(=O)O)CC4)cccc12 [Compound 216b]
reported result: < 1000 nM
--
compound: CC(C)n1nc(COc2ccccc2CC(=O)O)c2cc(-c3cccc4c(N)nn(C)c34)ccc21 [Compound 54c]
reported result: > 10000 nM

Find the recorded IC50 belonging to COCCN1CCC(n2nc(COc3ccccc3CC(=O)O)c3cc(-c4cccc5c(N)nccc45)ccc32)C1 (centres unmarked) [Compound 303c] and report it. < 1000 nM

Find the recorded IC50 belonging to CC(C)(C)OC(=O)NC1CC(n2nc3ccc(-c4ccc5ccnc(N)c5c4)cc3c2COc2ccccc2CC(=O)O)C1 (centres unmarked) [Compound 137b] and report it. 1000 to 10000 nM

Find the recorded IC50 belonging to Cc1cc(-c2cccc3c(N)nccc23)cc2c1CCC2Oc1ccccc1CC(=O)O (centres unmarked) [Compound 206b] and report it. < 1000 nM

Find the recorded IC50 belonging to Nc1nccc2c(-c3ccc4nn(CC5CNC5)c(COc5ccccc5CC(=O)O)c4c3)cccc12 [Compound 140b] and report it. 1000 to 10000 nM

Find the recorded IC50 belonging to Nc1nccc2c(-c3ccc4c(c3)[C@H](Oc3cc(F)ccc3CC(=O)O)CC4)cccc12 [Compound 422b] and report it. < 1000 nM

###

# system under test: recombinant human KLK5 (Homo sapiens, UniProt Q9Y337)
# assay text: Kallikrein (KLK) 5 enzymatic assay (Boc-VPR-AMC fluorogenic substrate)
# run parameters: recombinant human KLK5 0.1 μg/well, Boc-VPR-AMC 100 μM, pH 7.5, room temperature, 1% DMSO; tested a minimum of three times
pIC50: −log10 of the molar value.
measure: pIC50

Example cases with answers are listed next.
compound: COc1ccc(CC(=O)O)c(OCc2c(C)oc3ccc(-c4cccc(C(=N)N)c4)cc23)c1
system under test: recombinant human KLK5 (Homo sapiens, UniProt Q9Y337)
pIC50: > 6.00
//
compound: Nc1nccc2ccc(-c3ccc4c(c3)c(COc3ccccc3CC(=O)O)nn4[C@H]3CCOC3)cc12 [Compound 244b]
system under test: recombinant human KLK5 (Homo sapiens, UniProt Q9Y337)
pIC50: > 6.00
//
compound: Cc1cccc(OCc2nn(CC3CCOC3)c3ccc(-c4ccc5ccnc(N)c5c4)cc23)c1CC(=O)O (stereo not drawn) [Compound 95b]
system under test: recombinant human KLK5 (Homo sapiens, UniProt Q9Y337)
pIC50: > 6.00
//
compound: CCCN1CCC2(CC1)C[C@@H](Oc1ccccc1CC(=O)O)c1cc(-c3cccc4c(N)nccc34)ccc12 [Compound 417b]
system under test: recombinant human KLK5 (Homo sapiens, UniProt Q9Y337)
pIC50: > 6.00
//
compound: N=C(N)c1cccc(-c2ccc3c(c2)c(COc2ccccc2CC(=O)O)nn3C2CCCCC2)c1 [Compound 226b]
system under test: recombinant human KLK5 (Homo sapiens, UniProt Q9Y337)
pIC50: > 6.00

Find the recorded pIC50 belonging to Nc1nccc2ccc(-c3ccc4nc(C5CC5)cc(COc5ccccc5CC(=O)O)c4c3)cc12 [Compound 12e] and report it. < 5.00

Find the recorded pIC50 belonging to COC(=O)N1CCC2(CC1)CC(Oc1c(C#N)cccc1CC(=O)O)c1cc(-c3cccc4c(N)nccc34)ccc12 (stereo not drawn) [Compound 455b] and report it. 5.00 to 6.00

Find the recorded pIC50 belonging to Nc1nccc2ccc(-c3ccc4nn(C5CCOC5)c(COc5ccccc5CC(=O)O)c4c3)cc12 (stereo not drawn) [Compound 109b] and report it. 5.00 to 6.00

Find the recorded pIC50 belonging to Nc1nccc2c(-c3ccc4c(c3)C(Oc3ccccc3CC(=O)O)CC43CCOCC3)cccc12 (stereo not drawn) [Compound 351b] and report it. > 6.00

Find the recorded pIC50 belonging to Nc1nccc2ccc(-c3ccc4c(c3)C(Oc3ccccc3CC(=O)O)CC43CCOCC3)cc12 (stereo not drawn) [Compound 350h] and report it. > 6.00

Find the recorded pIC50 belonging to CC(C)n1nc(COc2ccccc2CC(=O)O)c2cc(-c3ccc4cc(Cl)nc(N)c4c3)ccc21 [Compound 46d] and report it. < 5.00

Find the recorded pIC50 belonging to COC(=O)N1CCC2(CC1)CC(Oc1cc(OC)ccc1CC(=O)O)c1cc(-c3cccc4c(N)nccc34)ccc12 (stereo not drawn) [Compound 453b] and report it. > 6.00

###

# system under test: recombinant human KLK5 (Homo sapiens)
# Sequence (Q9Y337 23-293): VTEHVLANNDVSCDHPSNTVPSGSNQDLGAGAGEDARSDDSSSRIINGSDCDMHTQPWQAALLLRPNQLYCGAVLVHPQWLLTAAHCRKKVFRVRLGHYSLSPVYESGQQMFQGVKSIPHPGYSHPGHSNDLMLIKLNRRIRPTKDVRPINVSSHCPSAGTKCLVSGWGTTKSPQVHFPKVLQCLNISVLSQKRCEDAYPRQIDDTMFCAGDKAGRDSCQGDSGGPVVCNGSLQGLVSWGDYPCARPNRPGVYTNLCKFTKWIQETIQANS
# assay text: Kallikrein (KLK) 5 enzymatic assay (Boc-VPR-AMC fluorogenic substrate)
# run parameters: recombinant human KLK5 0.1 μg/well, Boc-VPR-AMC 100 μM, pH 7.5, room temperature, 1% DMSO; tested a minimum of three times
# Method: […] The reaction rate for enzyme alone was compared to the reaction rate of enzyme in the presence of compound and the percent inhibition was calculated as shown below: […]
pIC50: −log10 of the molar value.
Overview of recorded pIC50 for various compounds

compound: COC(=O)N1CCC2(CC1)CC(Oc1c(C#N)cccc1CC(=O)O)c1cc(-c3ccc4ccnc(N)c4c3)ccc12 (centres unmarked) [Compound 454c]
system under test: recombinant human KLK5 (Homo sapiens)
measure: pIC50
reported result: 5.00 to 6.00

compound: Nc1nccc2c(-c3ccc4c(c3)c(COc3ccccc3CC(=O)O)nn4C3CCC3)cccc12 [Compound 69b]
system under test: recombinant human KLK5 (Homo sapiens)
measure: pIC50
reported result: > 6.00

compound: CC(C)n1nc(COc2ccccc2CC(=O)O)c2cc(-c3ccc4ccnc(O)c4c3)ccc21 [Compound 44d]
system under test: recombinant human KLK5 (Homo sapiens)
measure: pIC50
reported result: < 5.00

compound: NC(=O)c1cc(-c2cccc3c(N)nccc23)cc2c(COc3ccccc3CC(=O)O)nn(C3CCCCO3)c12 (centres unmarked) [Compound 286a]
system under test: recombinant human KLK5 (Homo sapiens)
measure: pIC50
reported result: 5.00 to 6.00

compound: CC(C)n1nc(COc2ccccc2CC(=O)O)c2cc(-c3cccc4c(N)noc34)ccc21 [Compound 30c]
system under test: recombinant human KLK5 (Homo sapiens)
measure: pIC50
reported result: < 5.00

compound: Cc1cccc(OCc2nn(C3CCC(F)(F)C3)c3ccc(-c4ccc5ccnc(N)c5c4)cc23)c1CC(=O)O (centres unmarked) [Compound 277b]
system under test: recombinant human KLK5 (Homo sapiens)
measure: pIC50
reported result: > 6.00

compound: Nc1nccc2c(-c3ccc4c(c3)C(Oc3cc(F)ccc3CC(=O)O)CC43CCCC3)cccc12 (centres unmarked) [Compound 442c]
system under test: recombinant human KLK5 (Homo sapiens)
measure: pIC50
reported result: > 6.00

compound: CC(C)(C)OC(=O)N1CC(Cn2nc3ccc(-c4cccc5c(N)nccc45)cc3c2COc2ccccc2CC(=O)O)C1 [Compound 139f]
system under test: recombinant human KLK5 (Homo sapiens)
measure: pIC50
reported result: > 6.00

compound: Cc1cccc(OC2CC3(CCCC3)c3ccc(-c4cccc5c(N)nccc45)cc32)c1CC(=O)O (centres unmarked) [Compound 366c]
system under test: recombinant human KLK5 (Homo sapiens)
measure: pIC50
reported result: > 6.00

compound: Cn1c(=O)n(Cc2ccccc2CC(=O)O)c2cc(-c3ccc4ccnc(N)c4c3)ccc21 [Compound 217e]
system under test: recombinant human KLK5 (Homo sapiens)
measure: pIC50
reported result: < 5.00

Find the recorded pIC50 belonging to CCOC(=O)N1CC[C@H](n2nc(COc3ccccc3CC(=O)O)c3cc(-c4ccc5ccnc(N)c5c4)ccc32)C1 [Compound 346b] and report it. > 6.00

Find the recorded pIC50 belonging to Cc1cccc(OC2CC3(CCN(C(=O)OCC(C)C)CC3)c3ccc(-c4ccc5ccnc(N)c5c4)cc32)c1CC(=O)O (centres unmarked) [Compound 450c] and report it. > 6.00

Find the recorded pIC50 belonging to CC(C)(C)OC(=O)NC1CC(n2nc3ccc(-c4cccc5c(N)nccc45)cc3c2COc2ccccc2CC(=O)O)C1 (centres unmarked) [Compound 135f] and report it. > 6.00

Find the recorded pIC50 belonging to Nc1nccc2ccc(-c3ccc4c(c3)[C@@H](Oc3ccccc3CC(=O)O)CC4)cc12 [Compound 221d] and report it. 5.00 to 6.00

Find the recorded pIC50 belonging to CC(C)Cn1nc(COc2ccccc2CC(=O)O)c2cc(-c3cccc4c(N)nccc34)ccc21 [Compound 189b] and report it. > 6.00

Find the recorded pIC50 belonging to CC(C)(C)OC(=O)N1CCC(n2nc(COc3ccccc3CC(=O)O)c3cc(-c4ccc5ccnc(N)c5c4)ccc32)C1 (centres unmarked) [Compound 87c] and report it. > 6.00
